All figures here come from PubChem BioAssay (NCI).

- Test system: OVCAR-8 ovarian
- Assay details: NCI-60 one-dose screen, 48 h
- Condition notes: 10 µM unless noted
About 83,000 compounds went through this panel and 20% of them were active in at least one assay; those are over-represented in the sample as a whole. The source made the active and inactive calls. Rule for the calls: active = growth percent below 10; inactive = the rest.
Outcomes: active, inactive

| Molecule | Study system | Group label |
| --- | --- | --- |
| CC(=O)N1N=C(c2ccccc2)CC1c1sc(N(CCCl)CCCl)nc1Cl (stereo not drawn) | OVCAR-8 ovarian | inactive |
| O=C(O)c1nn(Cc2ccc(Cl)cc2)c2ccccc12 | OVCAR-8 ovarian | inactive |
| S=P(NC1CCCCC1)(N1CC1)N1CC1 | OVCAR-8 ovarian | inactive |
| CC(/C=N/N=C(N)N)=N/N=C(N)N | OVCAR-8 ovarian | inactive |
| Oc1ccc(Br)cc1CN1CCN(Cc2ccc(Cl)cc2)CC1 | OVCAR-8 ovarian | inactive |
| ClCCN(CCCl)c1ccc(/C=C\c2ccnc3ccccc23)cc1 | OVCAR-8 ovarian | inactive |
| Nc1c(Br)cc([N+](=O)[O-])cc1[N+](=O)[O-] | OVCAR-8 ovarian | inactive |
| COc1ccc(OC)c(/C=C(/C)[N+](=O)[O-])c1 | OVCAR-8 ovarian | inactive |
| CC1(C)N=C(N)N=C(N)N1c1ccc(OCCCCNC(=O)Nc2cccc(S(=O)(=O)F)c2)c(Cl)c1 | OVCAR-8 ovarian | inactive |
| Oc1ccccc1OB(Oc1ccccc1O)N(CCCl)CCCl | OVCAR-8 ovarian | inactive |
| N#Cc1ncc(/N=C/c2ccc(N(CCCl)CCCl)cc2)s1 | OVCAR-8 ovarian | inactive |
| CCOc1ccc(C(O)CN(C)Cc2ccccc2)cc1Cl (stereo not drawn) | OVCAR-8 ovarian | inactive |
| COc1cc(C2CC(=O)Nc3nc(N)[se]c32)cc(OC)c1OC (stereo not drawn) | OVCAR-8 ovarian | inactive |
| CCCCCCCCCCOc1ccc(C(=O)Oc2ccc(CSP3(=O)OCC4OC(n5ccc(=O)[nH]c5=O)C(F)C4OP(=O)(O)OCC4OC(n5cnc6c(N)ncnc65)C(F)C4O3)cc2)cc1 (stereo not drawn) | OVCAR-8 ovarian | inactive |
| NCCc1cc(O)c(O)cc1O | OVCAR-8 ovarian | inactive |
| Clc1ccc(SSC(Cl)(Cl)Cl)cc1 | OVCAR-8 ovarian | inactive |
| COC(=O)C1CC2c3ccccc3C1c1ccccc12 (stereo not drawn) | OVCAR-8 ovarian | inactive |
| O=C1NC(=O)C(O)(C2(O)C(=O)NC(=O)NC2=O)C(=O)N1 | OVCAR-8 ovarian | inactive |
| C[C@]12CC[C@@H]3C4=C(CC[C@H]3[C@@H]1CC[C@@H]2O)CC(=O)CC4 | OVCAR-8 ovarian | inactive |
| COc1cc(C2(C#N)CCN(C)CC2)cc(OC)c1OC | OVCAR-8 ovarian | inactive |
| Cc1cc(NC(=O)NCCOc2ccc(N3C(N)=NC(N)=NC3(C)C)cc2Cl)ccc1S(=O)(=O)F | OVCAR-8 ovarian | inactive |
| OB([O][Hg][c]1ccccc1)[O][Hg][c]1ccccc1 | OVCAR-8 ovarian | active |
| CC(C)C1c2ccc(O)cc2Oc2nc(N)c(C#N)c(N)c21 (stereo not drawn) | OVCAR-8 ovarian | inactive |
| C[As](=O)(O)c1ccc(C(=O)O)cc1 | OVCAR-8 ovarian | inactive |
| CN(C)P1(N(C)C)=NP(N(C)C)(N(C)C)=NP(N(C)C)(N(C)C)=N1 | OVCAR-8 ovarian | inactive |
| C=CCN1C(=O)C(CC)(CCC(C)C)C(=O)NC1=S (stereo not drawn) | OVCAR-8 ovarian | inactive |
| O=C(CI)Nc1ccc(Br)cc1 | OVCAR-8 ovarian | inactive |
| CC1(C)CC2(CC(C)(C)c3cc(O)c(O)cc32)c2cc(O)c(O)cc21 | OVCAR-8 ovarian | inactive |
| CNC(=O)Oc1cccc(OC)c1 | OVCAR-8 ovarian | inactive |
| C[C@]12CCC(=O)CC1CC[C@@H]1C2CC[C@@]2(C)C1CC[C@@H]2OC(=O)CC[Se][Se]CCC(=O)O[C@H]1CCC2[C@@H]3CCC4CC(=O)CC[C@]4(C)C3CC[C@@]21C (stereo partly drawn) | OVCAR-8 ovarian | inactive |
| CC(=O)OC1CCC2(C)C(=CCC3C4CC(CN5CC5)C(=O)C4(C)CCC32)C1 (stereo not drawn) | OVCAR-8 ovarian | inactive |
| ClCCN(CCCl)c1nc(Cl)c(C2CC(c3ccccc3)=NN2c2ccccc2)s1 (stereo not drawn) | OVCAR-8 ovarian | inactive |
| O=C(CCCN1CCC2(CC1)C(=O)NCN2c1ccc(F)cc1)c1ccc(F)cc1 | OVCAR-8 ovarian | inactive |
